# assayedSystem: Calmodulin-1 (Homo sapiens) (UniProt P0DP23)
# assayComment: small molecules binding calmodulin-1 with EGTA – biochemical, small-molecule microarray, Cy5-labelled CALM1, profiling panel (AID 1111);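 note: labelled calmodulin applied in Tris saline Tween buffer holding calcium plus EGTA and DTT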
# assaySetup: Cy5-CALM1 binding fluorescence, higher = more signal
Could you label it 1.0 if measured composite z-score is 0.6 or higher, and 0.0 otherwise?

Before answering, review these 5 worked examples.
molecule	answerLabel
CC(C)C(=C=CC[C@H](O)c1ccc(CO)o1)CCO	0.0
CCCCN1CC=CC23O[C@@H]4/C=C\CCCOC(=O)C4[C@H]2C(=O)N(CCCO)[C@@H]3C1=O (some centres not stated)	0.0
CCOC(=O)[C@H]1C/C=C/C[C@H](C(=O)OCC)C(=O)O[C@H]2[C@@H](OC)O[C@H](CO)[C@@H](OC(=O)c3ccc(Br)cc3)[C@@H]2OC1=O	0.0
[N-]=[N+]=Nc1ccccc1[C@H]1OC(c2ccc(OCCCO)cc2)=N[C@@]1(Cc1ccccc1)C(=O)N1CCOCC1	1.0
COC(=O)[C@@]1(Cc2ccccc2)[C@H]2c3cc(C(=O)N4CCCC4)n(Cc4ccc(O)c(OC)c4)c3C[C@H]2CN1C(=O)c1ccccc1	0.0

// inclusive: composite z-score at least 0.6? input: COCCCNC(=O)[C@@]1(CCS(=O)(=O)c2ccccc2)N=C(c2ccc(OCCCO)cc2)O[C@H]1c1ccccc1N=[N+]=[N-]
1.0

// inclusive: composite z-score at least 0.6? input: COC(=O)C(CC#Cc1ccc2c(c1)[C@]1(C(=O)N2)[C@H](c2ccc(O)cc2)N2[C@H](c3ccccc3)[C@H](c3ccccc3)OC(=O)[C@H]2[C@@H]1C(=O)N1CCN(c2ncccn2)CC1)C(=O)OC
1.0

Data origin: PubChem BioAssay
